Assay: Binding affinity to Bacillus subtilis DNA sliding clamp protein expressed in Escherichia coli BL21(DE3) pLys at 30 degC by ITC assay
Where a SMILES comes first, the peptide text is derived from it. [ ]: non-standard residue; d: D form. Cha = N[C@@H](CC1CCCCC1)C(=O)O
QUANTITY_MEASURED: Kd (µM)
Write the value in µM as a bare number.

Given the compound CC(=O)N[C@@H](CCC(N)=O)C(=O)N[C@@H](CC1CCCCC1)C(=O)N[C@@H](CC(=O)O)C(=O)N[C@@H](CC(C)C)C(=O)N[C@@H](Cc1ccccc1)C(=O)O (Ac-Q[Cha]DLF-OH) , what is its reported Kd?
8.2

----------
Assay: Binding affinity to Escherichia coli DNA sliding clamp protein expressed in Escherichia coli BL21(DE3) pLys at 30 degC by ITC assay
Where a SMILES comes first, the peptide text is derived from it. [ ]: non-standard residue; d: D form. Cha = N[C@@H](CC1CCCCC1)C(=O)O
QUANTITY_MEASURED: pKd
The value called pKd is obtained by taking minus log10 of the concentration in mol/L.

Suppose we examine the molecule CC(=O)N[C@@H](CCC(N)=O)C(=O)N[C@@H](CC1CCCCC1)C(=O)N[C@@H](CC(=O)O)C(=O)N[C@@H](CC(C)C)C(=O)N[C@@H](Cc1ccccc1)C(=O)O (Ac-Q[Cha]DLF-OH) ; what pKd value has been reported?
6.00
